Exercise: state measured pKd for each of the binders provided.
target: T1, Fc-tagged human PD-L1 extracellular domain (SinoBiological, cat. 10084-H02H) (human, UniProt Q9NZQ7 19-238); assay: SPR, captured Fc-PD-L1 ECD, scFv analyte, kinetic
T1 construct: extracellular domain; also called hPD-L1; not shown: Fc tag of the bought protein
T1 sequence (Q9NZQ7 19-238): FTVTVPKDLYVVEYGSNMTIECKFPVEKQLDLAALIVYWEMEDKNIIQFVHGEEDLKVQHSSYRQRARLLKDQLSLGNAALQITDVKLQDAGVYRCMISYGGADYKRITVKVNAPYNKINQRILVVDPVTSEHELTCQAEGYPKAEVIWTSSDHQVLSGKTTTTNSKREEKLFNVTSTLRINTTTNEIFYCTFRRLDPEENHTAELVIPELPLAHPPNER
Lab note: report pKd as minus log10 of the concentration in molar units, number only.

Could you share which pKd value was measured for PRO1089 (scFv, V domains shown, also called 33-03-G02 VH-Y112A) VH: QVQLQESGPGLVKPSETLSLTCKVSGFSFSSGYDMCWIRQPPGKGLEWIGCVVAGSVDITYYASWAKGRVTISVDSSKNQFSLKLSSVTAADTAVYYCARKDAASDAFNLWGQGTLVTVSS VL: DIQMTQSPSSLSASVGDRVTITCQASQSINDYLAWYQQKPGKAPKLLIYKASTLASGVPSRFSGSGSGTDFTLTISSLQPEDFATYYCQQGYIITDIDNVFGTGTKVTVLG ?
7.78

# lookup: pKd of PRO1434 (scFv, V domains shown, also called 33-03-G02 VL-Q108A/G109A) VH: QVQLQESGPGLVKPSETLSLTCKVSGFSFSSGYDMCWIRQPPGKGLEWIGCVVAGSVDITYYASWAKGRVTISVDSSKNQFSLKLSSVTAADTAVYYCARKDAYSDAFNLWGQGTLVTVSS VL: DIQMTQSPSSLSASVGDRVTITCQASQSINDYLAWYQQKPGKAPKLLIYKASTLASGVPSRFSGSGSGTDFTLTISSLQPEDFATYYCQAAYIITDIDNVFGTGTKVTVLG
6.31

Item PRO1076 (scFv, V domains shown, also called 33-03-G02 VL-G109A) VH: QVQLQESGPGLVKPSETLSLTCKVSGFSFSSGYDMCWIRQPPGKGLEWIGCVVAGSVDITYYASWAKGRVTISVDSSKNQFSLKLSSVTAADTAVYYCARKDAYSDAFNLWGQGTLVTVSS VL: DIQMTQSPSSLSASVGDRVTITCQASQSINDYLAWYQQKPGKAPKLLIYKASTLASGVPSRFSGSGSGTDFTLTISSLQPEDFATYYCQQAYIITDIDNVFGTGTKVTVLG has what recorded pKd?
8.12

Quick one: pKd for PRO830 (scFv, V domains shown, also called 33-03-G02; parental scFv) VH: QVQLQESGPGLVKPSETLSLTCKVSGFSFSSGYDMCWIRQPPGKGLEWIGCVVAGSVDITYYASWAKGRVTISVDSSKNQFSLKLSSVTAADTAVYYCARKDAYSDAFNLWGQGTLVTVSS VL: DIQMTQSPSSLSASVGDRVTITCQASQSINDYLAWYQQKPGKAPKLLIYKASTLASGVPSRFSGSGSGTDFTLTISSLQPEDFATYYCQQGYIITDIDNVFGTGTKVTVLG ?
10.11
